- protocol.notes: MTT assay, cytotoxicity in human keratinocyte cell line
- Type: cell-based
- run.conditions: human, Cell viability
metric.name: viability at 24 h, 3 µM (%)
Write the answer as a number in %, unit excluded.

CCCCCCCCCCCCCC[C@@H](O)[C@@H](O)[C@@H](N)CO	93

Now take the following molecule into account.
Inquiry: What does the record list as viability at 24 h, 3 µM for CCCCCCCCCCCCCC[C@@H](O)[C@@H](O)[C@H](CO)NC(C)=O ?
Reply text: 99

----------
- protocol.notes: MTT assay, cytotoxicity in human keratinocyte cell line
- Type: cell-based
- run.conditions: human, Cell viability
# viability at 24 h, 30 µM per record follows
Write the answer as a number in %, unit excluded.

CCCCCCCCCCCCCC[C@@H](O)[C@@H](O)[C@@H](N)CO [PS, phytosphingosine]	51

Now take the following compound into account.
Inquiry: What does the record list as viability at 24 h, 30 µM for CCCCCCCCCCCCCC[C@@H](O)[C@@H](O)[C@H](CO)NC(C)=O [NAPS, N-acetyl phytosphingosine] ?
Reply text: 17

----------
# viability at 24 h, 3 µM per record follows
- protocol.notes: MTT assay, cytotoxicity in human skin cancer cell line
- Format: cell-based
- run.conditions: human, Cell viability
Write the answer as a number in %, unit excluded.

CCCCCCCCCCCCCC[C@@H](O)[C@@H](O)[C@@H](N)CO	85

Now take the following molecule into account.
Inquiry: What does the record list as viability at 24 h, 3 µM for CCCCCCCCCCCCCC[C@@H](O)[C@@H](O)[C@H](CO)NC(C)=O ?
Reply text: 100
